Reference source for all entries: the supplement of paper PMC11451515

Test system: NOMO1
Assay: AUC of viability dose-response curve (% viability x log10 dose units); higher = less sensitive
Conditions: HPLM + 10% dialyzed FBS; 48 h
Measured AUC of viability dose-response curve by item
When you answer, write just the number.

// recorded AUC of viability dose-response curve for `COC1=CC=C2Nc3cc(Cl)ccc3C(N=C3C=C(CN4CCCC4)C(=O)C(CN4CCCC4)=C3)=C2N1` : 472

So for `Cc1[nH]c(/C=C2\C(=O)Nc3ccc([S+](=O)([O-])N(C)c4cccc(Cl)c4)cc32)c(C)c1C(=O)N1CCN(C)CC1` , the logged AUC of viability dose-response curve turned out to be 451

`Nc1ccccc1NC(=O)c1ccc(CNc2nccc(-c3cccnc3)n2)cc1` yielded AUC of viability dose-response curve of 351

Note to self: AUC of viability dose-response curve recorded for Cc1ccc(C(C)(O)c2nc3ccccc3s2)c(C)c1 (centres undefined) was 427
